# experimental target: T1, recombinant mouse GITR (mouse, UniProt O35714 20-153, limits assumed)
# T1 construct: also called Mu GITR recomb protein; immobilized mouse GITR
# T1 sequence (looked up): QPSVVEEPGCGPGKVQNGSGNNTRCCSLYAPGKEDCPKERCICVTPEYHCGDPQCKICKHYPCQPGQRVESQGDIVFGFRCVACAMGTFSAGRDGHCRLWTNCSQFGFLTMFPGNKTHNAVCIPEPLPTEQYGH
# procedure summary: Western blot, non-reducing
value type: binding result

| binder | value type | result |
| --- | --- | --- |
| mAb 231-1042-7 (murine) (antibody, mouse IgG1, V domains shown, Mouse IgG1 from hybridoma) VH: QVQLLQSGTELVRPGVSVKISCKGSGYTFTDYAMYWVKQSHAKSLEWIGVIRTYSGDVTYNQKFKDKATMTVDKSSSIAYMELARLSSEDSAIYYCAKSGTVRGFAYWGQGTLVTVSS VL: DIVMTQSPSSLTVTAGEKVIMSCKSSQSLLNSGNQKNYLTWYQQKPGQPPKLLIYWASTRESGVPDRFTGSGSGTDFTLTISSVQAEDLAVYHCQNDYSYPYTFGGGTKLEIK | binding result | no binding |
| mAb 231-32-15 (murine) (antibody, mouse IgG1, V domains shown, Mouse IgG1 from hybridoma; also called antibody 32-15) VH: QVQLLQSGTELVRPGVSVKISCKGSGYTFTDYAMYWVKQSHAKSLEWIGVIRTYSGDVTYNQKFKDKATMTVDKSSSIAYMELARLSSEDSAIYYCAKSGTVRGFAYWGQGTLVTVSS VL: DIVMTQSPSSLTVTAGEKVIMSCKSSQSLLNSGNQKNYLTWYQQKPGQPPKLLIYWASTRESGVPDRFTGSGSGTDFTLTISSVQAEDLAVYHCQNDYSYPYTFGGGTKLEIK | binding result | no binding |
| mAb 231-1039-45 (murine) (antibody, mouse IgG1, V domains shown, Mouse IgG1 from hybridoma) VH: QVQLLQSGTELVRPGVSVKISCKGSGYTFTDYAMYWVKQSHAKSLEWIGVIRTYSGDVTYNQKFKDKATMTVDKSSSIAYMELARLSSEDSAIYYCAKSGTVRGFAYWGQGTLVTVSS VL: DIVMTQSPSSLTVTAGEKVIMSCKSSQSLLNSGNQKNYLTWYQQKPGQPPKLLIYWASTRESGVPDRFTGSGSGTDFTLTISSVQAEDLAVYHCQNDYSYPYTFGGGTKLEIK | binding result | no binding |
